B1: Triacylglycerol hydrolase DDHD2, residues 389 to 447; numbered along this chain, O94830 (parent)
chain: TLEEDLKKLQLSEFFDIFEKEKVDKEALALCTDRDLQEIGIPLGPRKKILNYFSTRKNS

# Variants of: B1
# method-summary: abundance fitness (aPCA) (normalised: wild type 0, dead -1); higher = more abundant; growth selection in yeast, the domain comes from the species named
# stated-conditions: Homo sapiens
This listing pairs variants with measured abundance fitness.
outcome-measure: abundance fitness

Q10V :: -0.667
D24Y :: -0.627
K25E :: 0.293
A27W :: 0.841
A29M :: -0.156
K57Y :: -0.244
I41Q :: -0.144
K22W :: -0.729
K7H :: -0.07
V23M :: 0.773
N51M :: 0.084
N58L :: -0.116
E19W :: -0.463
F53D :: -0.03
L30P :: -0.177
T32Y :: -0.388
S12T :: 0.017
E38V :: -0.036
I49M :: -0.09
A27H :: 0.357
R46P :: -0.628
L6A :: -1.1
